# maps each entry to its self-cleavage
B1: LINE1-full (parent)
chain: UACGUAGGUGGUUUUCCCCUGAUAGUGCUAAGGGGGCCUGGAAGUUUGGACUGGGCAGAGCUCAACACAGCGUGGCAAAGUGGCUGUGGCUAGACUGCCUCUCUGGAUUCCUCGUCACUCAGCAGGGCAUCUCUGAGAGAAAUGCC

- Variants of: B1
- Experimental Protocol: self-cleavage, relative activity (ratio to wild type); higher = more cleavage; in vitro, sequencing; the parent is a self-cleaving ribozyme
Value Type: self-cleavage

INSERT INTO results (residue_sequence, value_type, endpoint_result) VALUES
  ('UACGUAGGUGGUUUUCCCCUGAUAGUGCUAAGGGGGCCUGGAAGUUUGGACUGGGCAGAGCUCAACACAGCGUGGCAAAGAGGCUGUGGCUAGACUGCCUCUCUGGAUACCUCGUCACUCAGCAGGGCAUCUCUGAGAGAAAUGCC', 'self-cleavage', 2.28),
  ('UACGUAGGUGGUUUUCCCCUGAUAGUGCUAAGGGGGCCUGGAAGUUUGGACUGGGCAGAGCUCCACACAGCGUGGCAAAGGGGCUGUGGCUAGACUGCCUCUCUGGAUUCCUCGUCACUCAGCAGGGCAUCUCUGAGAGAAAUGCC', 'self-cleavage', 0.3),
  ('UACGUAGGUGGUUUUCCCCUGAUAGUGCUAAGGGGGCCUGGAAGUUUGGACUGGGCAGAGCUCAACACAGCGUGGCAAAGUGGCUGCGGCUAGACUGCCUCUCUGGAUUCCUCGUCACUCAGCAGGGCAUCUCGGAGAGAAAUGCC', 'self-cleavage', 0.31),
  ('UACGUAGGAGGUUUUCCCCUGAUAGUGCUAAGGGGGCCUGGAAGUUUGGACUGGGCAGAGCUCAACACAGCGUGGCAAAGUGGCUGUGGCUAGACUGCCUCUCUGGAUUCCUCGUCACCCAGCAGGGCAUCUCUGAGAGAAAUGCC', 'self-cleavage', 1.04),
  ('UACGUAGGUGGGUUUCCCCUGAUAGUGCUAAGGGGGCCUGGAAGUUUGGACUGGGCAGAGCUCAACACAGCGUGGCAAAGUGGCUGUGGCUAGACCGCCUCUCUGGAUUCCUCGUCACUCAGCAGGGCAUCUCUGAGAGAAAUGCC', 'self-cleavage', 0.27),
  ('UACGUAGGGGGUUUUCCCCUGAUAGUGCUAAGGGGGCCUGGAAGUUUGGACUGGGCAGAGCUCAACACAGCGUGGCAAAGUGGCUGUGGCUAGACUGCCCCUCUGGAUUCCUCGUCACUCAGCAGGGCAUCUCUGAGAGAAAUGCC', 'self-cleavage', 1.61),
  ('UACGUAGGUGGUUUUCCCCUGAUAGUGCUAAGGGGGCCUGGAAGUUUGGACUGGGAAGAGCUCAACACAGCGUGGCAAAGUGGCUGUGGCUAGACUGCCUCUCUGGAUUCCUCGUCACUCAGCAGGGCAGCUCUGAGAGAAAUGCC', 'self-cleavage', 0.03),
  ('UACGUAGGUGGUUUUCCCCUGAUAUUGCUAAGGGGGCCCGGAAGUUUGGACUGGGCAGAGCUCAACACAGCGUGGCAAAGUGGCUGUGGCUAGACUGCCUCUCUGGAUUCCUCGUCACUCAGCAGGGCAUCUCUGAGAGAAAUGCC', 'self-cleavage', 0.47),
  ('UACGUAGGUGGUUUUCCCCUGAUAGAGCUAAGGGGGCCUGGAAGUUUGGACUGGGCAGAGCUCAACACAGCGUGGCAAAGUGGCUGUGGCUAGACAGCCUCUCUGGAUUCCUCGUCACUCAGCAGGGCAUCUCUGAGAGAAAUGCC', 'self-cleavage', 0.09),
  ('UACGUAGGUGGUAUACCCCUGAUAGUGCUAAGGGGGCCUGGAAGUUUGGACUGGGCAGAGCUCAACACAGCGUGGCAAAGUGGCUGUGGCUAGACUGCCUCUCUGGAUUCCUCGUCACUCAGCAGGGCAUCUCUGAGAGAAAUGCC', 'self-cleavage', 0.59),
  ('UACGUAGGUGGUUUUCCCCUGAUAGUGCUAAGGAGGCCUGGAAGUUUGGACUGGGCAGAGCUCGACACAGCGUGGCAAAGUGGCUGUGGCUAGACUGCCUCUCUGGAUUCCUCGUCACUCAGCAGGGCAUCUCUGAGAGAAAUGCC', 'self-cleavage', 0.12),
  ('UACGUAGGUGGUUUUCCCCUGAUAGUGCUAAGGGGGCCUGGAGGUUUGGACUGAGCAGAGCUCAACACAGCGUGGCAAAGUGGCUGUGGCUAGACUGCCUCUCUGGAUUCCUCGUCACUCAGCAGGGCAUCUCUGAGAGAAAUGCC', 'self-cleavage', 0.41),
  ('UACGUAGGUGGUUUUCCCCUGAUAGUGCUAAGGGGGCCUGGAAGUUUGGACUGGGCAGAGCUCAACACAGCGUGGCAAAGUGGCAGUGGCUAGACUGCCUCUCUGGAUUCCUCGUCACUCAGCAGGGCAUCUCUGAGUGAAAUGCC', 'self-cleavage', 0.06),
  ('UACGUAGGUGGUUUUCCCCUGAUAGUGCUAAGGGGGCCUGGAAGUUAGGACUGGGCAGAGCUCAACACAGCGUGGCAAAGUGGCUGUGGCUAGACUGCCUCUCUGGAUUCCUCGCCACUCAGCAGGGCAUCUCUGAGAGAAAUGCC', 'self-cleavage', 1.39),
  ('UACGUAGGUGGUUUACCCCUGAUAGUGCUAAGGGGGCCUGGAAGUUUGGACUGGGCAGAGCUCAACACAGCGUGGCAAAGUGGCUGUGGCUAGACUGCCUCUCUGGAUUCCUCGUCACUCAGCAGGGCAUCUUUGAGAGAAAUGCC', 'self-cleavage', 1.31),
  ('UACGUAGGUGGUUUUCCCCUGAUAGUGCUAAGGGGGCCUGGAAGUUUGGACUGGGCAGAGCUCAACACAGCGUGGCAAAGUGGCUGUGGCUAGACUGCCUCCCUGGAUUCCUCGUCACUCAGCAGGGCAUCUCUGAGAGAAAUACC', 'self-cleavage', 1.15),
  ('UACGUAGGUGGUUUUCCCCUGAUAGUGCUAAGGGGGCCUGGAAGUUUGGACUGGGCAGAGCUAAACACAGCGAGGCAAAGUGGCUGUGGCUAGACUGCCUCUCUGGAUUCCUCGUCACUCAGCAGGGCAUCUCUGAGAGAAAUGCC', 'self-cleavage', 0.06),
  ('UACGUAGGCGGUUUUCCCCUGAUAGUGCUAAGGGGGCCUGGAAGUUUGGACUGAGCAGAGCUCAACACAGCGUGGCAAAGUGGCUGUGGCUAGACUGCCUCUCUGGAUUCCUCGUCACUCAGCAGGGCAUCUCUGAGAGAAAUGCC', 'self-cleavage', 0.65),
  ('UACGUAGGUGGUUUUCCCCUGAUAGUGCUAAGGGGGCCUGGCGGUUUGGACUGGGCAGAGCUCAACACAGCGUGGCAAAGUGGCUGUGGCUAGACUGCCUCUCUGGAUUCCUCGUCACUCAGCAGGGCAUCUCUGAGAGAAAUGCC', 'self-cleavage', 1.13),
  ('UACGUAGGUGGUUCUCCCCUGAUAGUGCUAAGGGGGCCCGGAAGUUUGGACUGGGCAGAGCUCAACACAGCGUGGCAAAGUGGCUGUGGCUAGACUGCCUCUCUGGAUUCCUCGUCACUCAGCAGGGCAUCUCUGAGAGAAAUGCC', 'self-cleavage', 1),
  ('UUCGUAGGUGGUUUUCCCCUGAUAGUGCUAAGGGGGCCUGGAAGUUCGGACUGGGCAGAGCUCAACACAGCGUGGCAAAGUGGCUGUGGCUAGACUGCCUCUCUGGAUUCCUCGUCACUCAGCAGGGCAUCUCUGAGAGAAAUGCC', 'self-cleavage', 0.43),
  ('UACGUAGGUGGUUUUCCCCUGGUAGUGCUAAGGGGGCCUGGAAGUUUGGACUGGGCAGAGCUCAACACAGCGUGGCAAAGUGGCUGUGGCUAGACUGCCUCUCAGGAUUCCUCGUCACUCAGCAGGGCAUCUCUGAGAGAAAUGCC', 'self-cleavage', 1.38);
